Reference source for all entries: ChEMBL document CHEMBL5360639

Assay: Therapeutic index, ratio of IC50 for cytotoxicty against mouse BV-2 cells assessed as reduction in cell viability by crystal violet staining based assay to IC50 for nti-neuroinflammatory activity in mouse BV-2 cells assessed as inhibition of LPS-induced NO production
Format: toxicity
Details: read-out: Ratio IC50
Could you label it yes if measured selectivity ratio is 2 or higher, and no otherwise?

Quick check, selectivity ratio >= 2? "C=C(C)[C@@H]1CCC(C)=C[C@H]1c1c(O)cc(CC)cc1O"
yes

Quick check, selectivity ratio >= 2? C=C(C)[C@@H]1CCC(C)=C[C@H]1c1c(O)cc(C(C)n2nccn2)cc1O (stereo partly specified)
yes

Quick check, selectivity ratio >= 2? "C=C(C)[C@@H]1CCC(C)=C[C@H]1c1c(O)cc(CCCC)cc1O"
yes

Quick check, selectivity ratio >= 2? "C=C(C)[C@@H]1CCC(C)=C[C@H]1c1c(O)cc(CCCCCCC)cc1O"
no

Quick check, selectivity ratio >= 2? "C=CCOc1cc(CCCCC)cc(O)c1[C@@H]1C=C(C)CC[C@H]1C(=C)C"
no

Quick check, selectivity ratio >= 2? "C=C(C)[C@@H]1CCC(C)=C[C@H]1c1c(O)cc(CCCCCCCC)cc1O"
no

* * *

Test: Cytotoxicity against mouse BV-2 cells assessed as reduction in cell viability by crystal violet staining based assay
Assay type: toxicity
OBSERVATION_TYPE: pIC50
// pIC50: -log10(molar conc.)

Can you look up the measured pIC50 of "C=C(C)[C@@H]1CCC(C)=C[C@H]1c1c(O)cc(CCCCC)cc1O" for me?
5.07

Can you look up the measured pIC50 of "C=C(C)[C@@H]1CCC(C)=C[C@H]1c1c(O)cc(CCCCCCC)cc1O" for me?
4.85

Can you look up the measured pIC50 of "C=C(C)[C@@H]1CCC(C)=C[C@H]1c1c(O)cc(CCCCC)cc1OC" for me?
4.24

Can you look up the measured pIC50 of "C=CCOc1cc(CCCCC)cc(O)c1[C@@H]1C=C(C)CC[C@H]1C(=C)C" for me?
4.15

Can you look up the measured pIC50 of "C=C(C)[C@@H]1CCC(C)=C[C@H]1c1c(O)cc(CC)cc1O" for me?
4.65

Can you look up the measured pIC50 of C=C(C)[C@@H]1CCC(C)=C[C@H]1c1c(O)cc(C(C)n2ccnc2)cc1O (some centres not stated) for me?
4.49

Can you look up the measured pIC50 of C=C(C)[C@@H]1CCC(C)=C[C@H]1c1c(O)cc(C(C)n2cccc2)cc1O (some centres not stated) for me?
3.81

Can you look up the measured pIC50 of "C#CCOc1cc(CCCCC)cc(O)c1[C@@H]1C=C(C)CC[C@H]1C(=C)C" for me?
4.19

Can you look up the measured pIC50 of "C=C(C)[C@@H]1CCC(C)=C[C@H]1c1c(O)cc(CCCCC)cc1OCC" for me?
3.75

Can you look up the measured pIC50 of "C=C(C)[C@@H]1CCC(C)=C[C@H]1c1c(O)cc(CCCC)cc1O" for me?
4.95

Can you look up the measured pIC50 of "C=C(C)[C@@H]1CCC(C)=C[C@H]1c1c(O)cc(CCCCCCCC)cc1O" for me?
4.58

Can you look up the measured pIC50 of "C=C(C)[C@@H]1CCC(C)=C[C@H]1c1c(O)cc(CCCCCC)cc1O" for me?
4.72

Can you look up the measured pIC50 of "C=C(C)[C@@H]1CCC(C)=C[C@H]1c1c(O)cc(CCC)cc1O" for me?
4.74

Can you look up the measured pIC50 of C=C(C)[C@@H]1CCC(C)=C[C@H]1c1c(O)cc(C(C)n2ccnn2)cc1O (some centres not stated) for me?
4.11

Can you look up the measured pIC50 of C=C(C)[C@@H]1CCC(C)=C[C@H]1c1c(O)cc(C(C)n2nccn2)cc1O (some centres not stated) for me?
4.24
